- Tested on: LOX IMVI melanoma
- Run Description: NCI-60 one-dose screen, 48 h
- Setup Conditions: 10 µM unless noted
The panel holds about 83,000 compounds, 20% with a hit somewhere; the sample as a whole holds those more often. Active and inactive are the calls of the source. The calls were made as follows: active = growth percent below 10; inactive = the rest.
Possible outcomes: TRUE = active, FALSE = inactive

compound=O=C(Cc1cccc(OC(F)(F)F)c1)Nc1ccc(CCCCc2nnc(NC(=O)Cc3ccccn3)s2)nn1 cat=FALSE
compound=N#Cc1nc(-c2ccccc2)oc1S(=O)(=O)N1CCN(c2ccc(F)cc2)CC1 cat=FALSE
compound=S=c1[nH]c(=S)c2c(-c3ccccc3)c(-c3ccccc3)oc2[nH]1 cat=FALSE
compound=CCOC(=O)C1=C(C)/C(=C\c2[nH]c(C)c(C(=O)OCC)c2C)N=C1C cat=TRUE
compound="CC(=O)ON1CCCC(P(=O)(OCCSC(=O)C(C)(C)C)OCCSC(=O)C(C)(C)C)C1=O (centres undefined)" cat=FALSE
compound=CC1CCN(C(=S)SCC(=O)NC(=O)c2ccccc2)CC1 cat=FALSE
compound=CCN1CCN(C(=O)[C@]23CC[C@@H](C)[C@H](C)[C@@H]2C2=CC[C@@H]4[C@@]5(C)C/C(=C/c6cccnc6)C(=O)C(C)(C)[C@@H]5CC[C@@]4(C)[C@]2(C)CC3)CC1 cat=FALSE
compound=Cc1cccc(-c2nc(Nc3ccc4ncsc4c3)c3ccccc3n2)n1 cat=FALSE
compound=Cc1ccccc1Nc1cc(O)c2c(=O)cc(-c3ccccc3)oc2c1 cat=FALSE
compound=O=C1c2cccc3cccc(c23)C(=O)N1C/C=C/c1ccc2c3c(cccc13)C(=O)N(CCO)C2=O cat=FALSE
compound=Cc1ccc(/C=C/C(=O)c2ccc(-n3cc(CN4CCN(c5cc6c(cc5F)c(=O)c(C(=O)O)cn6C5CC5)CC4)nn3)cc2)cc1 cat=FALSE
compound=COc1ccc(NC(=O)Nc2ccc(OCCCCCC(=O)NO)cc2)cc1 cat=FALSE
compound=COc1ccc(N2CCC(=S)NC2=S)cc1 cat=FALSE
compound=COC(=O)c1c2c(n3ccccc13)C(=O)c1ccccc1C2=O cat=FALSE
compound=Cc1cccc(Oc2ccc(Nc3ncnc4ccc(NC(=O)CN5CCN(C)CC5)cc34)cc2Cl)c1 cat=TRUE
compound=CCN1C2CCC1/C(=C\c1ccc(F)cc1)C(=O)/C2=C/c1ccc(F)cc1 cat=FALSE
compound=Oc1ccc(/C=C/c2ccc(O)cc2)cc1 cat=FALSE
compound=CC(C)(C)n1cc(-c2ccnc(NCCNS(=O)(=O)c3ccc(O)cc3)c2)c(-c2cccc(O)c2)n1 cat=FALSE
compound=O=C(Cn1nnc2ccccc21)N/N=C/c1c[nH]c2ccccc12 cat=FALSE
compound=O=C(Nc1ccc(Cl)cc1)Oc1c(Cl)c(Cl)c(Cl)c(Cl)c1Cl cat=FALSE
compound=CC(=C(c1ccc(OCCN2CCCCC2)cc1)c1ccc(OCCN2CCCCC2)cc1)c1ccc(Cl)cc1 cat=TRUE
compound=C=CCN1C(=O)c2cccc3c(N4CCOCC4)ccc(c23)C1=O cat=TRUE
compound=Cc1ccc2nc(-c3ccc(C(=O)NNC(=S)Nc4ccccc4)cc3)[nH]c2c1 cat=FALSE
compound="N#CC1=C(N)Oc2ccc3ccccc3c2C1c1ccc([N+](=O)[O-])cc1 (centres undefined)" cat=FALSE
compound=O=C(CCCCCCN1CC(=O)N2[C@H](c3ccc(Cl)cc3)c3[nH]c4ccccc4c3C[C@@H]2C1=O)NO cat=FALSE
compound=COc1ccc(-c2n[nH]c(=O)c3nc(NC(=S)Nc4ccc(Oc5ccccc5)cc4)sc23)cc1 cat=FALSE
compound=Cc1nc2cc(O)c(O)cc2cc1Oc1ccc(NC(=O)Nc2ccc(Cl)c(Cl)c2)cc1 cat=TRUE
compound="OCCNCCNC(Cc1ccc(Cl)cc1)c1ccccc1 (centres undefined)" cat=FALSE
compound=O=C1/C(=C2\SC(=S)N(C3CC3)C2=O)SC(=S)N1C1CC1 cat=FALSE
compound=O=c1ccc(=O)n(-c2nc(-c3ccc([N+](=O)[O-])cc3)cs2)[nH]1 cat=FALSE
compound=O=C(Cc1ccc(/C=C/C(=O)c2ncc[nH]2)cc1)Nc1cc(C(F)(F)F)cc(C(F)(F)F)c1 cat=FALSE
compound=COc1ccc(C(=S)N2CCN(c3ccc(Cl)cc3)CC2)cc1 cat=FALSE
compound=O=C1c2ccccc2C(=O)C1c1ccc(Br)cc1 cat=FALSE
compound=CCOc1cccc(/C=N/NC(=O)c2cccc(Nc3ccnc(C(F)(F)F)c3)c2)c1O cat=FALSE
compound=Cc1nn(-c2ccccc2)c(N)c1N=C1NC(=O)/C(=C/c2ccc(Br)cc2)S1 cat=FALSE
compound=COc1cc(C(=O)c2c(-c3ccccc3)oc3c(OC)cccc23)cc(OC)c1OC cat=FALSE
compound=C#CCNC(=O)[C@]1(C)CCC[C@@]2(C)[C@H]1CC=C1C=C(C(C)C)CC[C@@H]12 cat=FALSE
compound=Cc1nnc(-c2ccc3c(c2)nc(/C=C/c2ccccc2)n3C2CCCCC2)o1 cat=FALSE
compound=O=c1c2c3c(sc2n2c(-c4cc(-c5ccccc5)no4)nnc2n1Cc1ccccc1)CCCC3 cat=FALSE
